# Tested on: Giardia intestinalis (ATCC #30888)
# Experiment summary: Antigiardial biological screening (XTT tetrazolium dye procedure)
# Assay type: cell-based
# Condition: Giardia duodenalis, ATCC30888; concentration that inhibits giardial growth by 50%, estimated graphically; samples at 10, 3.3 and 1.1 μg/mL, 24 h at 37° C., XTT; NA = inactive; read-out: IC50
Measurement type: IC50 (µg/mL)

Examples with their reported IC50 follow.
>>> print(df.to_string())
                                   compound  measurement_type  measured_number
0  O=c1c(-c2ccccc2)coc2c(Br)c(O)ccc12 [P(A3,B1), 8-Bromo-7-hydroxy-3-phenylchromen-4-one]              IC50              1.6
1  Cc1ncc([N+](=O)[O-])n1CCO [metronidazole, reference compound]              IC50              1.5

(A) O=c1c(-c2ccccc2)coc2c(Cl)c(O)ccc12 [P(A2,B1), 8-Chloro-7-hydroxy-3-phenylchromen-4-one]
(B) O=c1c(-c2ccccc2)coc2cc(O)c(Br)cc12 [P(A6,B1), 6-Bromo-7-hydroxy-3-phenylchromen-4-one]
Query: // returns A or B , whichever has the lower IC50 Answer = label.
Response: A
